Quick reference for pIC50 among some compounds
Molecular target: human dUTPase (Homo sapiens (Human))
Assay: Human dUTPase inhibitory effect: production of [5-3H]dUMP from [5-3H]dUTP, measured by HPLC with flow scintillation
Assay type: biochemical
Conditions: [5-3H]dUMP production from [5-3H]dUTP, 37° C., 15 minutes
Method: The inhibitory activity of the compound of the present invention against human dUTPase was determined by measuring the production of [5-^3H]deoxyuridine monophosphate (hereinafter, referred to as [5-^3H]dUMP) from [5-^3H]deoxyuridine triphosphate (hereinafter, referred to as [5-^3H]dUTP) according to a method shown below. […] The inhibitory activity of the test compound was determined according to the formula shown below.
Quick note: pIC50 values are minus log10 of concentrations in mol/L.

# example entries with known answers
CC(C)(NS(=O)(=O)c1cccc(OCC2CC2)c1)c1ccc(Cn2ccc(=O)[nH]c2=O)cc1; 6.62
C[C@@H](NS(=O)(=O)CCCOCn1ccc(=O)[nH]c1=O)c1cccc(OCC2CCCC2)c1; 6.00
O=c1ccn(COCCCCNS(=O)(=O)c2cccc(OCC3CC3)c2)c(=O)[nH]1; 6.19

Problem: Consider the compound `CC[C@@H](NS(=O)(=O)CCCn1ccc(=O)[nH]c1=O)c1ccccc1` and give its measured pIC50.
Solution: 5.01

Problem: Consider the compound `CC(C)(CCCOCn1ccc(=O)[nH]c1=O)NS(=O)(=O)c1ccc(Cl)cc1` and give its measured pIC50.
Solution: 5.40

* * *

Target: human dUTPase (Homo sapiens (Human), UniProt P33316)
Sequence (P33316 94-252): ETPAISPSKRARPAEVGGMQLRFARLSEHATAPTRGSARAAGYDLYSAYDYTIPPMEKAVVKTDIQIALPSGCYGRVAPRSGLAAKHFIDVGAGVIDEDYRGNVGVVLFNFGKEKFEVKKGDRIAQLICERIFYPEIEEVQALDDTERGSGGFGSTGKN
Experiment: Human dUTPase inhibitory effect: production of [5-3H]dUMP from [5-3H]dUTP, measured by HPLC with flow scintillation
Conditions: [5-3H]dUMP production from [5-3H]dUTP, 37° C., 15 minutes
Doc: threshold 0.4 µM (exclusive). Items with IC50 beneath it return label 1; others return label 0.

Please review the following examples before continuing.
CC[C@@](O)(CNS(=O)(=O)CCCOCn1ccc(=O)[nH]c1=O)c1ccc(F)c(OC2CCCC2)c1; label 0
Cc1ccccc1C(NS(=O)(=O)CCCOCn1ccc(=O)[nH]c1=O)c1ccccc1 (centres unmarked); label 0
O=c1ccn(COCCCS(=O)(=O)NC2(c3ccccc3)CCCC2)c(=O)[nH]1; label 0
COc1cccc(S(=O)(=O)NC2(CCCOCn3ccc(=O)[nH]c3=O)CC2)c1; label 0
CC(C)(CCCOCn1ccc(=O)[nH]c1=O)NS(=O)(=O)c1cccc(OC(F)F)c1; label 0
CC[C@@H](NS(=O)(=O)CCCOCn1ccc(=O)[nH]c1=O)c1ccccc1; label 0
CC[C@H](C)Oc1cccc([C@@H](C)NS(=O)(=O)CCCOCn2ccc(=O)[nH]c2=O)c1; label 0
C[C@@H](NS(=O)(=O)CCCn1ccc(=O)[nH]c1=O)c1cccc(OCC(F)F)c1; label 0
O=c1ccn(CCCS(=O)(=O)N[C@H](c2ccc(F)cc2)c2ccc(F)c(OCC3CC3)c2)c(=O)[nH]1; label 1
C[C@@H](NS(=O)(=O)CCCOCn1ccc(=O)[nH]c1=O)c1ccc(F)c(OCC(F)F)c1; label 1

Problem: Is IC50 strictly under 0.4 µM for the entry `C[C@@H](NS(=O)(=O)CCCOCn1ccc(=O)[nH]c1=O)c1cccc(O[C@@H]2CCOC2)c1` ?
Solution: label 0

Problem: Is IC50 strictly under 0.4 µM for the entry CC[C@H](C)COc1cccc(C(NS(=O)(=O)CCCOCn2ccc(=O)[nH]c2=O)c2ccccc2)c1 (some centres unmarked) ?
Solution: label 0

Problem: Is IC50 strictly under 0.4 µM for the entry `O=c1ccn(COCCCS(=O)(=O)NC(c2ccccc2)c2ccccc2)c(=O)[nH]1` ?
Solution: label 0

Problem: Is IC50 strictly under 0.4 µM for the entry `CC(C)(CCCOCn1ccc(=O)[nH]c1=O)NS(=O)(=O)c1cccc(Br)c1` ?
Solution: label 0
